Just for reference, patent EP3064205A1 is where these values come from.

Provide the reported Tmax of each item.
assay: Pharmacokinetic evaluation in mice (plasma and brain); format: in vivo, male NMRI mice; settings: male, NMRI, mouse, iv, plasma, i.v., 2 mg/kg, read-out: Plasma tmax
All answers are understood in h, so give the number only.

Entry O[C@H](c1cc(-c2ccc(Cl)cc2)nc2ccccc12)[C@@H]1CCCCN1 [S1] — recorded Tmax = 4

Lab book: Tmax of O[C@@H](c1cc(-c2ccc(Cl)cc2)nc2ccccc12)[C@H]1CCCCN1 [S2] noted as 0.5

---

System: BXF 1218
Experiment: 3D clonogenic assay (PDX)
Format: cell-based, human
Settings: Homo sapiens; BXF 1218, Bladder; read-out: abs. IC50
Description: The anti-tumor efficacy of S1 in the patient-derived tumor xenograft (PDX) tumor panel was assessed, where the efficacy of S1 in PDX tumor panel in the 96-well format, in 10 concentrations in duplicate was performed. Colony formation of tumor cell suspensions in a soft-agar matrix was observed and quantified. The output is IC50 values and dose response-relationships based on number of colonies in control and treatment wells, as identified by an automated image analysis algorithm. […]
Reported Property: pIC50
Scale for pIC50: -log10 of concentration given in mol/L; no unit attached.

Field pIC50 (entry "O[C@H](c1cc(-c2ccc(Cl)cc2)nc2ccccc12)[C@@H]1CCCCN1" ) reads 5.21

---

test system: PXF 537; test: 3D clonogenic assay (PDX); format: cell-based, human; settings: Homo sapiens; PXF 537, Pleuramesothelioma; read-out: abs. IC50
Reported Property: IC50
The answer should read as a number with its unit following.

IC50 reading for O[C@H](c1cc(-c2ccc(Cl)cc2)nc2ccccc12)[C@@H]1CCCCN1 [S1] : 8.67 µM

---

Test system: MAXF 1322
Test: 3D clonogenic assay (PDX)
Type: cell-based, human
Conditions: Homo sapiens; MAXF 1322, Breast; read-out: rel. IC50
Protocol: The anti-tumor efficacy of S1 in the patient-derived tumor xenograft (PDX) tumor panel was assessed, where the efficacy of S1 in PDX tumor panel in the 96-well format, in 10 concentrations in duplicate was performed. Colony formation of tumor cell suspensions in a soft-agar matrix was observed and quantified. The output is IC50 values and dose response-relationships based on number of colonies in control and treatment wells, as identified by an automated image analysis algorithm. […]
Reported Property: IC50 (µM)
Answer in µM, number only, no unit symbol.

So the reported IC50 for "O[C@H](c1cc(-c2ccc(Cl)cc2)nc2ccccc12)[C@@H]1CCCCN1" , on MAXF 1322, turned out to be 3.82

---

tested on: LXFA 526; test: 3D clonogenic assay (PDX); assay type: cell-based, human; details: Homo sapiens; LXFA 526, Lung Adeno; read-out: rel. IC50
Reported Property: pIC50
// pIC50 is dimensionless: -log10 of concentration (M)

What the record says about "O[C@H](c1cc(-c2ccc(Cl)cc2)nc2ccccc12)[C@@H]1CCCCN1" : pIC50 is 5.54

---

test system: CXF 280; test: 3D clonogenic assay (PDX); format: cell-based, human; details: Homo sapiens; CXF 280, Colorectal; read-out: abs. IC50
Reported Property: pIC50
Quick note: pIC50 values are minus log10 of concentrations in mol/L.

Form field pIC50, entry "O[C@H](c1cc(-c2ccc(Cl)cc2)nc2ccccc12)[C@@H]1CCCCN1" : 5.06
